Test system: hTERT-HMEC
Experimental Details: percentage of EdU-negative (G0-arrested) nuclei per well, 72 h; higher = more G0 arrest;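 note: secreted proteins added to cultured cells, EdU pulse at the end, nuclei found by Hoechst imaging, EdU status from nuclear versus surrounding ring intensity ratio, PBS as neutral control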
Condition Summary: protein concentration 0.0225 µM; reference: sequence is the full UniProt precursor, the tested protein was the secreted form or ectodomain
Quantity Name: percentage of EdU-negative (%)

[[record]]
sequence_string = "MVMRPLWSLLLWEALLPITVTGAQVLSKVGGSVLLVAARPPGFQVREAIWRSLWPSEELLATFFRGSLETLYHSRFLGRAQLHSNLSLELGPLESGDSGNFSVLMVDTRGQPWTQTLQLKVYDAVPRPVVQVFIAVERDAQPSKTCQVFLSCWAPNISEITYSWRRETTMDFGMEPHSLFTDGQVLSISLGPGDRDVAYSCIVSNPVSWDLATVTPWDSCHHEAAPGKASYKDVLLVVVPVSLLLMLVTLFSAWHWCPCSGKKKKDVHADRVGPETENPLVQDLP [Q9P0V8]"
u = "%"
observed = 7.18

[[record]]
sequence_string = "MDSSREPTLGRLDAAGFWQVWQRFDADEKGYIEEKELDAFFLHMLMKLGTDDTVMKANLHKVKQQFMTTQDASKDGRIRMKELAGMFLSEDENFLLLFRRENPLDSSVEFMQIWRKYDADSSGFISAAELRNFLRDLFLHHKKAISEAKLEEYTGTMMKIFDRNKDGRLDLNDLARILALQENFLLQFKMDACSTEERKRDFEKIFAYYDVSKTGALEGPEVDGFVKDMMELVQPSISGVDLDKFREILLRHCDVNKDGKIQKSELALCLGLKINP"
u = "%"
observed = 4.77

[[record]]
sequence_string = "MSPHPTALLGLVLCLAQTIHTQEEDLPRPSISAEPGTVIPLGSHVTFVCRGPVGVQTFRLERDSRSTYNDTEDVSQASPSESEARFRIDSVREGNAGLYRCIYYKPPKWSEQSDYLELLVKESSGGPDSPDTEPGSSAGPTQRPSDNSHNEHAPASQGLKAEHLYILIGVSVVFLFCLLLLVLFCLHRQNQIKQGPPRSKDEEQKPQQRPDLAVDVLERTADKATVNGLPEKDRETDTSALAAGSSQEVTYAQLDHWALTQRTARAVSPQSTKPMAESITYAAVARH [Q6GTX8]"
u = "%"
observed = 5.38


----------
Tested on: hTERT-HMEC
Experimental Details: percentage of EdU-negative (G0-arrested) nuclei per well, 72 h; higher = more G0 arrest
Condition Summary: protein concentration 0.225 µM; reference: sequence is the full UniProt precursor, the tested protein was the secreted form or ectodomain
Quantity Name: percentage of EdU-negative (%)

[[record]]
sequence_string = "MMQKLLKCSRLVLALALILVLESSVQGYPTRRARYQWVRCNPDSNSANCLEEKGPMFELLPGESNKIPRLRTDLFPKTRIQDLNRIFPLSEDYSGSGFGSGSGSGSGSGSGFLTEMEQDYQLVDESDAFHDNLRSLDRNLPSDSQDLGQHGLEEDFML"
u = "%"
observed = 5.72

[[record]]
sequence_string = "MKLGLLCALLSLLAGHGWADTRAIGAEECRPNSQPWQAGLFHLTRLFCGATLISDRWLLTAAHCRKPYLWVRLGEHHLWKWEGPEQLFRVTDFFPHPGFNKDLSANDHNDDIMLIRLPRQARLSPAVQPLNLSQTCVSPGMQCLISGWGAVSSPKALFPVTLQCANISILENKLCHWAYPGHISDSMLCAGLWEGGRGSCQGDSGGPLVCNGTLAGVVSGGAEPCSRPRRPAVYTSVCHYLDWIQEIMEN [Q9UKQ9]"
u = "%"
observed = 5.62

[[record]]
sequence_string = "MRLAVLFSGALLGLLAAQGTGNDCPHKKSATLLPSFTVTPTVTESTGTTSHRTTKSHKTTTHRTTTTGTTSHGPTTATHNPTTTSHGNVTVHPTSNSTATSQGPSTATHSPATTSHGNATVHPTSNSTATSPGFTSSAHPEPPPPSPSPSPTSKETIGDYTWTNGSQPCVHLQAQIQIRVMYTTQGGGEAWGISVLNPNKTKVQGSCEGAHPHLLLSFPYGHLSFGFMQDLQQKVVYLSYMAVEYNVSFPHAAQWTFSAQNASLRDLQAPLGQSFSCSNSSIILSPAVHLDLLSLRLQAAQLPHTGVFGQSFSCPSDRSILLPLIIGLILLGLLALVLIAFCIIRRRPSAYQAL"
u = "%"
observed = 7.36


----------
Test system: MCF7
Experimental Details: percentage of EdU-negative (G0-arrested) nuclei per well, 72 h; higher = more G0 arrest
Condition Summary: protein concentration 0.0225 µM; reference: sequence is the full UniProt precursor, the tested protein was the secreted form or ectodomain
// reported percentage of EdU-negative for each item listed
Quantity Name: percentage of EdU-negative (%)

[[record]]
sequence_string = "MLSSVVFWGLIALIGTSRGSYPFSHSMKPHLHPRLYHGCYGDIMTMKTSGATCDANSVMNCGIRGSEMFAEMDLRAIKPYQTLIKEVGQRHCVDPAVIAAIISRESHGGSVLQDGWDHRGLKFGLMQLDKQTYHPVGAWDSKEHLSQATGILTERIKAIQKKFPTWSVAQHLKGGLSAFKSGIEAIATPSDIDNDFVNDIIARAKFYKRQSF [Q86SG7]"
quantity_name = "percentage of EdU-negative"
u = "%"
observed = 27.3

[[record]]
sequence_string = "MSSFSTTTVSFLLLLAFQLLGQTRANPMYNAVSNADLMDFKNLLDHLEEKMPLEDEVVPPQVLSEPNEEAGAALSPLPEVPPWTGEVSPAQRDGGALGRGPWDSSDRSALLKSKLRALLTAPRSLRRSSCFGGRMDRIGAQSGLGCNSFRY"
quantity_name = "percentage of EdU-negative"
u = "%"
observed = 25

[[record]]
sequence_string = "MSFPCKFVASFLLIFNVSSKGAVSKEITNALETWGALGQDINLDIPSFQMSDDIDDIKWEKTSDKKKIAQFRKEKETFKEKDTYKLFKNGTLKIKHLKTDDQDIYKVSIYDTKGKNVLEKIFDLKIQERVSKPKISWTCINTTLTCEVMNGTDPELNLYQDGKHLKLSQRVITHKWTTSLSAKFKCTAGNKVSKESSVEPVSCPEKGLDIYLIIGICGGGSLLMVFVALLVFYITKRKKQRSRRNDEELETRAHRVATEERGRKPHQIPASTPQNPATSQHPPPPPGHRSQAPSHRPPPPGHRVQHQPQKRPPAPSGTQVHQQKGPPLPRPRVQPKPPHGAAENSLSPSSN"
quantity_name = "percentage of EdU-negative"
u = "%"
observed = 24.6


----------
Test system: MCF7
Experimental Details: percentage of EdU-negative (G0-arrested) nuclei per well, 72 h; higher = more G0 arrest
Condition Summary: protein concentration 0.225 µM; reference: sequence is the full UniProt precursor, the tested protein was the secreted form or ectodomain
Quantity Name: percentage of EdU-negative

[[record]]
sequence_string = "MDFGLALLLAGLLGLLLGQSLQVKPLQVEPPEPVVAVALGASRQLTCRLACADRGASVQWRGLDTSLGAVQSDTGRSVLTVRNASLSAAGTRVCVGSCGGRTFQHTVQLLVYAFPDQLTVSPAALVPGDPEVACTAHKVTPVDPNALSFSLLVGGQELEGAQALGPEVQEEEEEPQGDEDVLFRVTERWRLPPLGTPVPPALYCQATMRLPGLELSHRQAIPVLHSPTSPEPPDTTSPESPDTTSPESPDTTSQEPPDTTSPEPPDKTSPEPAPQQGSTHTPRSPGSTRTRRPEISQAGPTQGEVIPTGSSKPAGDQLPAALWTSSAVLGLLLLALPTYHLWKRCRHLAEDDTHPPASLRLLPQVSAWAGLRGTGQVGISPS"
observed = "26.3%"

[[record]]
sequence_string = "MRPLLCALTGLALLRAAGSLAAAEPFSPPRGDSAQSTACDRHMAVQRRLDVMEEMVEKTVDHLGTEVKGLLGLLEELAWNLPPGPFSPAPDLLGDGF [Q5JTB6]"
observed = "26%"

[[record]]
sequence_string = "MKMRFLGLVVCLVLWTLHSEGSGGKLTAVDPETNMNVSEIISYWGFPSEEYLVETEDGYILCLNRIPHGRKNHSDKGPKPVVFLQHGLLADSSNWVTNLANSSLGFILADAGFDVWMGNSRGNTWSRKHKTLSVSQDEFWAFSYDEMAKYDLPASINFILNKTGQEQVYYVGHSQGTTIGFIAFSQIPELAKRIKMFFALGPVASVAFCTSPMAKLGRLPDHLIKDLFGDKEFLPQSAFLKWLGTHVCTHVILKELCGNLCFLLCGFNERNLNMSRVDVYTTHSPAGTSVQNMLHWSQAVKFQKFQAFDWGSSAKNYFHYNQSYPPTYNVKDMLVPTAVWSGGHDWLADVYDVNILLTQITNLVFHESIPEWEHLDFIWGLDAPWRLYNKIINLMRKYQ"
observed = "27.7%"


----------
Test system: hTERT-HMEC
Experimental Details: percentage of EdU-negative (G0-arrested) nuclei per well, 72 h; higher = more G0 arrest
Condition Summary: protein concentration 0.0225 µM; reference: sequence is the full UniProt precursor, the tested protein was the secreted form or ectodomain
Quantity Name: percentage of EdU-negative

[[record]]
sequence_string = "MAQLCGLRRSRAFLALLGSLLLSGVLAADRERSIHDFCLVSKVVGRCRASMPRWWYNVTDGSCQLFVYGGCDGNSNNYLTKEECLKKCATVTENATGDLATSRNAADSSVPSAPRRQDSEDHSSDMFNYEEYCTANAVTGPCRASFPRWYFDVERNSCNNFIYGGCRGNKNSYRSEEACMLRCFRQQENPPLPLGSKVVVLAGLFVMVLILFLGASMVYLIRVARRNQERALRTVWSSGDDKEQLVKNTYVL"
quantity_name = "percentage of EdU-negative"
observed = "4.91%"

[[record]]
sequence_string = "MQAARGGAGRPERPGRPGRGPERERERPPGAGAASPCAAPGLPAGGATIHPGSPSAWPPRARAALRLWLGCVCFALVQADSPSAPVNVTVRHLKANSAVVSWDVLEDEVVIGFAISQQKKDVRMLRFIQEVNTTTRSCALWDLEEDTEYIVHVQAISIQGQSPASEPVLFKTPREAEKMASKNKDEVTMKEMGRNQQLRTGEVLIIVVVLFMWAGVIALFCRQYDIIKDNEPNNNKEKTKSASETSTPEHQGGGLLRSKI [Q8NAU1]"
quantity_name = "percentage of EdU-negative"
observed = "5.26%"

[[record]]
sequence_string = "MAARRSQRRRGRRGEPGTALLVPLALGLGLALACLGLLLAVVSLGSRASLSAQEPAQEELVAEEDQDPSELNPQTEESQDPAPFLNRLVRPRRSAPKGRKTRARRAIAAHYEVHPRPGQDGAQAGVDGTVSGWEEARINSSSPLRYNRQIGEFIVTRAGLYYLYCQVHFDEGKAVYLKLDLLVDGVLALRCLEEFSATAASSLGPQLRLCQVSGLLALRPGSSLRIRTLPWAHLKAAPFLTYFGLFQVH"
quantity_name = "percentage of EdU-negative"
observed = "12.2%"

